Entry source: patent US12435080B2

assay comment: Rat cerebrospinal fluid (CSF) pharmacokinetic properties
Format: in vivo
experimental parameters: CSF, male Sprague-Dawley rats, PO 10 mg/kg in PEG400, 1 h post-dosing, compounds in Table IA, read-out: CSF Conc. (nM @ 1 h)
Experimental: PK in rats was determined following oral dosing. For the oral (PO) experiments, a group of 6 male Sprague-Dawley rats with an indwelling catheter placed in the cisterna magna were used. […] Plasma was collected and analyzed for the presence of compound. The compound in question and the internal standard were extracted from plasma and CSF by precipitation. Samples were analyzed using liquid chromatography (LC) with tandem mass spectrometric detection (MS/MS) using electrospray ionization. […]
Collected concentration at 1 h values appear next to each entry.
State the result as a value with its unit after it.

>>> observed("FC(F)(F)c1n[nH]c(-c2nn(CCC(F)(F)C(F)(F)F)c3ncccc23)n1")
"16.6 nM"
>>> observed("Fc1ccccc1Cn1nc(-c2nc(C3CC3(F)F)n[nH]2)c2cccnc21 (centres unmarked)")
"21.5 nM"
>>> observed("Fc1cccc(Cn2nc(-c3nc(C(F)(F)F)n[nH]3)c3cccnc32)c1F")
"41.6 nM"

Name the recorded concentration at 1 h for Fc1ccccc1Cc1nn(-c2nc(C(F)(F)F)n[nH]2)c2cccnc12 .
66.6 nM

Name the recorded concentration at 1 h for Fc1cccc(Cc2nn(-c3nc(C(F)(F)F)n[nH]3)c3cccnc23)c1F .
17.4 nM

Name the recorded concentration at 1 h for Fc1ccccc1Cn1nc(-c2nc(C(F)F)n[nH]2)c2cccnc21 .
207 nM

Name the recorded concentration at 1 h for FC(F)(F)c1n[nH]c(-c2nn(Cc3ccccc3)c3ncccc23)n1 .
172 nM

Name the recorded concentration at 1 h for N#Cc1n[nH]c(-c2nn(Cc3cccc(F)c3F)c3ncccc23)n1 .
10.8 nM
